biological target: IRF5; settings: ASO, KARPAS-229, 4 µM
After the bases stand the sugars from the 5' end (letter, count) and the backbone: PS all phosphorothioate, else s phosphorothioate and o phosphodiester by linkage. Methylation of C is not given here. e = 2'-O-(2-methoxyethyl) (MOE); k = constrained ethyl (cEt); d = 2'-deoxy (DNA)
Quantity kind: target mRNA inhibition (%)
Give bare numbers, in %.

Batch request: target mRNA inhibition per item, same order as input.
1. AGGAAGTGAGTCTCAA (sugars kkkddddddddkekek, PS)
2. CAGGTTCTTGGACTCT (sugars kkkdddddddddkeke, PS)
3. GAGTGAGACGAGCAAA (sugars kkddddddddkekekk, PS)
4. ACATCTCCACATCAGT (sugars kkdddddddddkdkdk, PS)
5. CCTTCTGCAGGGAGTC (sugars kdddddddddkekeke, PS)
6. GGTCTTGACCTCCCGC (sugars kkkdddddddddkeke, PS)

[out]
1. 24
2. 1
3. 17
4. 28
5. 0
6. 7

###

target: HTRA1; details: ASO, U251, 5 µM
After the bases stand the sugars from the 5' end (letter, count) and the backbone: PS all phosphorothioate, else s phosphorothioate and o phosphodiester by linkage. Methylation of C is not given here. l = locked nucleic acid (LNA); d = 2'-deoxy (DNA)
Assign condition met whenever target mRNA inhibition does not fall below 70%; assign condition not met whenever it does.

TCTACGCATTGTATCG (sugars l4 d8 l4, PS) :: condition met
CAATGTGTAAGAAGTACTTT (sugars l4 d12 l4, PS) :: condition met
TTCTTCTATCTACGCATT (sugars l4 d11 l3, PS) :: condition met

[in] Decide: is the reported value of target mRNA inhibition for TCAGTTAAAGGAGGAGACAA (sugars l3 d14 l3, PS) equal to or greater than 70%?
[out] condition not met

[in] Hi team, for GATGACTCAGTTAAAGGAGG (sugars l2 d15 l3, PS) , is the recorded target mRNA inhibition at or above 70%?
[out] condition not met

[in] Check if target mRNA inhibition >= 70% (inclusive). Item: CTCAGTTAAAGGAGGAGACA (sugars l3 d15 l2, PS)
[out] condition not met

###

target: ANGPTL2; conditions: ASO, 5 µM
After the bases stand the sugars from the 5' end (letter, count) and the backbone: PS all phosphorothioate, else s phosphorothioate and o phosphodiester by linkage. Methylation of C is not given here. l = locked nucleic acid (LNA); d = 2'-deoxy (DNA)
Assign target mRNA inhibition to each entry below.
Please state the value followed by its unit.

ACAACTCACATTCATAG (sugars l4 d9 l4, PS) :: 49%
GAACCTCAATATCCTGC (sugars l1 d13 l3, PS) :: 62.6%
GATGATGCGGTTGTAG (sugars l4 d10 l2, PS) :: 70%
TATTAGCATCACTACTTT (sugars l4 d11 l3, PS) :: 48%
TTTTGAGATTCCCCCAAA (sugars l1 d13 l4, PS) :: 24.8%
AACCATTTTGAGATTCCCC (sugars l1 d16 l2, PS) :: 28.5%
CAGCTCATTGTTGAGCAG (sugars l2 d14 l2, PS) :: -19%
GTATTGTGAGGAGTTTC (sugars l4 d11 l2, PS) :: 80%
GCAGCTCATTGTTGAGC (sugars l1 d14 l2, PS) :: 8.7%
TGATGATGCGGTTGTAG (sugars l3 d12 l2, PS) :: 64.2%

List the reported target mRNA inhibition of each sequence below.
1. CCAAGGGCACGTTTTA (sugars l2 d12 l2, PS)
2. TTGACAGGGATTAGGCA (sugars l1 d13 l3, PS)

[out]
1: -4%; 2: 11.6%
